- Test system: MCF7 breast
- Assay summary: NCI tumour cell line growth inhibition, 48 h
Assay endpoint: GI50

Use these answered entries as a reference point.
- Compound: "COc1cc2c(=O)[nH]c3cc([N+](=O)[O-])ccc3c2cc1[N+](=O)[O-]"
  GI50: "979 nM"
- Compound: "CN1CCN(CCCOc2cccc3nc(Nc4ccc(Cl)c(C(F)(F)F)c4)ccc23)CC1"
  GI50: "1410 nM"
- Compound: "COc1nnc2ccc(N3CCC(c4ccc(OCCN5CCN(C)C(=O)[C@H]5C)cc4)CC3)nn12"
  GI50: "23.4 nM"
- Compound: "O=[N+]([O-])c1cccc(C2CC(c3ccccc3)=Nc3ccccc3S2)c1 (stereo unspecified)"
  GI50: "2060 nM"
- Compound: "COc1ccc(/C(C#N)=C2C=C/C(=N/O)c3ccccc3\\2)cc1"
  GI50: "181 nM"

Exercise: Requested field: GI50. Item: N#CC1c2ccccc2C=CN1C(=O)N(c1ccccc1)c1ccccc1 (stereo unspecified)
Solution: 2900 nM

Value source: PubChem BioAssay (NCI)
